Test: In vitro cytotoxicity (MTT)
Format: cell-based, BALB/c mice
Conditions: BALB/c, mouse, murine peritoneal adherent cells
readout: CC50 at 24 h (µM)
Output spec: scalar in µM, unitless text.

# count of solved cases: 2
>>> number("N=C(N)c1ccc(OCCCCCOc2ccc(C(=N)N)cc2)cc1 [Pentamidine, reference compound]")
54
>>> number("Cc1nn(-c2ccc(S(=O)(=O)Nc3ccccc3)cc2)c(Cl)c1Br [Compound 3b]")
144

State its CC50 at 24 h for this compound: Cc1nn(-c2ccc(S(=O)(=O)Nc3ccc(Cl)cc3)cc2)c(Cl)c1Br [Compound 3e] 116
